target: Link_TSG6 (Homo sapiens, UniProt P98066); construct: made in house; experiment: ITC of HA oligosaccharides binding to Link_TSG6; conditions: Table 4; ITC, 25 °C, 5 mM MES pH 6.0; mean ± SEM
Sequence (P98066 36-129 limits assumed): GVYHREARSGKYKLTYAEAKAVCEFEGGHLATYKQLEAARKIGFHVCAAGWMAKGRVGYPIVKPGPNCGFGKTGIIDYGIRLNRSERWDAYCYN
−TΔS by entry:

smiles string | −TΔS
CC(=O)N[C@H]1[C@H](O[C@H]2[C@H](O)[C@@H](O)[C@H](O[C@H]3[C@H](O)[C@@H](CO)O[C@@H](O[C@H]4[C@H](O)[C@@H](O)[C@H](O[C@H]5[C@H](O)[C@@H](CO)O[C@@H](O[C@H]6[C@H](O)[C@@H](O)[C@H](O[C@@H]([C@H](O)[C@H](O)CO)[C@H](CNc7cc[nH]n7)NC(C)=O)O[C@@H]6C(=O)O)[C@@H]5NC(C)=O)O[C@@H]4C(=O)O)[C@@H]3NC(C)=O)O[C@@H]2C(=O)O)O[C@H](CO)[C@@H](O)[C@@H]1O[C@@H]1O[C@H](C(=O)O)[C@@H](O)[C@H](O)[C@H]1O | −3.28 ± 0.28 kcal•mol^a1
CC(=O)N[C@H]1[C@H](O[C@H]2[C@H](O)[C@@H](O)[C@H](O[C@H]3[C@H](O)[C@@H](CO)O[C@@H](O[C@H]4[C@H](O)[C@@H](O)[C@H](O[C@@H]([C@H](O)[C@H](O)CO)[C@H](CNc5cc[nH]n5)NC(C)=O)O[C@@H]4C(=O)O)[C@@H]3NC(C)=O)O[C@@H]2C(=O)O)O[C@H](CO)[C@@H](O)[C@@H]1O[C@@H]1O[C@H](C(=O)O)[C@@H](O)[C@H](O)[C@H]1O | 0.04 ± 0.87 kcal•mol^a1

---

target: Link_TSG6 (Homo sapiens, UniProt P98066); construct: made in house; assay: ITC of HA oligosaccharides binding to Link_TSG6; conditions: Table 4; ITC, 25 °C, 5 mM MES pH 6.0; mean ± SEM
Parameter ΔG: see the listing below.
property name: ΔG (kcal/mol)

smiles string | property name | recorded value
CC(=O)N[C@H]1[C@H](O[C@H]2[C@H](O)[C@@H](O)[C@H](O[C@H]3[C@H](O)[C@@H](CO)O[C@@H](O[C@H]4[C@H](O)[C@@H](O)[C@H](O[C@@H]([C@H](O)[C@H](O)CO)[C@H](CNc5cc[nH]n5)NC(C)=O)O[C@@H]4C(=O)O)[C@@H]3NC(C)=O)O[C@@H]2C(=O)O)O[C@H](CO)[C@@H](O)[C@@H]1O[C@@H]1O[C@H](C(=O)O)[C@@H](O)[C@H](O)[C@H]1O | ΔG | -7.77
CC(=O)N[C@H]1[C@H](O[C@H]2[C@H](O)[C@@H](O)[C@H](O[C@H]3[C@H](O)[C@@H](CO)O[C@@H](O[C@H]4[C@H](O)[C@@H](O)[C@H](O[C@H]5[C@H](O)[C@@H](CO)O[C@@H](O[C@H]6[C@H](O)[C@@H](O)[C@H](O[C@@H]([C@H](O)[C@H](O)CO)[C@H](CNc7cc[nH]n7)NC(C)=O)O[C@@H]6C(=O)O)[C@@H]5NC(C)=O)O[C@@H]4C(=O)O)[C@@H]3NC(C)=O)O[C@@H]2C(=O)O)O[C@H](CO)[C@@H](O)[C@@H]1O[C@@H]1O[C@H](C(=O)O)[C@@H](O)[C@H](O)[C@H]1O | ΔG | -8.97
COc1ccc(C(=O)O)c(NC[C@H](NC(C)=O)[C@@H](O[C@@H]2O[C@H](C(=O)O)[C@@H](O[C@@H]3O[C@H](CO)[C@@H](O)[C@H](O[C@@H]4O[C@H](C(=O)O)[C@@H](O[C@@H]5O[C@H](CO)[C@@H](O)[C@H](O[C@@H]6O[C@H](C(=O)O)[C@@H](O[C@@H]7O[C@H](CO)[C@@H](O)[C@H](O[C@@H]8O[C@H](C(=O)O)[C@@H](O)[C@H](O)[C@H]8O)[C@H]7NC(C)=O)[C@H](O)[C@H]6O)[C@H]5NC(C)=O)[C@H](O)[C@H]4O)[C@H]3NC(C)=O)[C@H](O)[C@H]2O)[C@H](O)[C@H](O)CO)c1 | ΔG | -8.23
CC(=O)N[C@H]1[C@H](O[C@H]2[C@H](O)[C@@H](O)[C@H](O[C@H]3[C@H](O)[C@@H](CO)O[C@@H](O[C@H]4[C@H](O)[C@@H](O)[C@H](O[C@@H]([C@H](O)[C@H](O)CO)[C@H](CNc5ccc6c(c5)CCC6)NC(C)=O)O[C@@H]4C(=O)O)[C@@H]3NC(C)=O)O[C@@H]2C(=O)O)O[C@H](CO)[C@@H](O)[C@@H]1O[C@@H]1O[C@H](C(=O)O)[C@@H](O)[C@H](O)[C@H]1O | ΔG | -8.43

Values compiled from paper PMC11460632.
